The measurements presented in this section are drawn from PubChem BioAssay (NCI).

# Tested on: SF-268 CNS
# ASSAY: NCI tumour cell line growth inhibition, 48 h
This section presents compounds with their documented TGI values.

{"columns": ["COMPOUND", "READOUT VALUE"],
 "data": [
  ["Cc1cc(Oc2ccccc2)ccc1Nc1ncnc2ccc(-c3cnc(Cl)c(NS(C)(=O)=O)c3)cc12", "12.6 µM"],
  ["O=c1[nH]c2[nH]c(-c3ccc(Br)cc3)cc2c2ccccc12", "> 100 µM"],
  ["CC(=O)c1c2c(cc3c1CC1(C3)Cc3cc4c(c(C(=O)O)c3C1)CCCC4)CCCC2 (centres undefined) (tested in a mixture with another compound)", "> 100 µM"]
]}

Moving on to another compound below.
Which TGI value is on record for COc1nc(Cl)nc(Cl)c1Cl (tested in a mixture with another compound) ?
> 31.7 µM

* * *

This section presents molecules with their documented GI50 values.
# System: HT29 colon
# ASSAY: NCI tumour cell line growth inhibition, 48 h

The examples below pair each entry with its known result.
{"columns": ["LINE NOTATION", "GI50"],
 "data": [
  ["Cc1ccc(Cl)cc1-c1nc(N)nc(Nc2ccc(Br)cc2)n1", "0.0365 µM"],
  ["O=S(=O)(Nc1ccc(Cl)cc1)c1ccc(-c2cnc(C3CC3)o2)cc1", "0.414 µM"],
  ["CCOC(=O)c1nnn(-c2no[n+]([O-])c2-c2ccc(OC)cc2)c1COc1cccc2cccnc12", "1.42 µM"],
  ["Cn1cc(-c2ccc(-c3cn(C)c4ccc(Cl)cc34)[nH]2)c2cc(Cl)ccc21", "3.92 µM"]
]}

Moving on to another molecule below.
Which GI50 value is on record for `O=C(CCCCN1CCOCC1)Nc1ccc(Cn2nnc3c2C(=O)c2nnn(Cc4ccc(NC(=O)CCCCN5CCOCC5)cc4)c2C3=O)cc1` ?
0.178 µM

* * *

This section presents molecules with their documented TGI values.
# Tested on: SK-MEL-2 melanoma
# ASSAY: NCI tumour cell line growth inhibition, 48 h

{"columns": ["MOLECULE", "TARGET OR TEST SYSTEM", "TGI"],
 "data": [
  ["CC(=O)OC1CCC2(C)C(CCC3C4CC=C(C5(C)OCCO5)C4(C)CCC32)C1 (configuration not stated)", "SK-MEL-2 melanoma", "37.4 µM"],
  ["Cc1nc(N)nn1C1OCC(O)C(O)C1O (configuration not stated)", "SK-MEL-2 melanoma", "> 100 µM"],
  ["COc1ccc2nc3ccccc3c(NCc3ccc(Cl)cc3)c2c1", "SK-MEL-2 melanoma", "3.7 µM"],
  ["CCCc1[nH]nc(C(N)=O)c1N=NN(C)C", "SK-MEL-2 melanoma", "> 100 µM"],
  ["CC(=O)N1CCC(Nc2cc(C(=O)NC[C@H](O)CN3CCc4ccccc4C3)ncn2)CC1", "SK-MEL-2 melanoma", "> 100 µM"],
  ["COC(=O)C1Cc2c([nH]c3ccccc23)C(c2ccccc2O)N1 (configuration not stated)", "SK-MEL-2 melanoma", "> 100 µM"],
  ["CC1(O)CCC(C(C)(C)O)CC1 (configuration not stated)", "SK-MEL-2 melanoma", "> 100 µM"],
  ["CC(=O)OC1CC2C(C)(C)C(=O)C=C[C@]2(C)C2CC[C@]3(C)C(OCC(=O)[C@H]3c3ccoc3)[C@]12C (some centres not stated)", "SK-MEL-2 melanoma", "42.3 µM"]
]}

Which TGI value is on record for `Cc1cc2c3ccccc3nc2c2cc[nH]c(C)c12` ?
23.3 µM

# repeat for CC(=O)N1C(Nc2cnc3ccccc3c2)CCN1c1ccccc1 (configuration not stated)
> 10 µM

# repeat for COC(=O)C(Cc1ccc2c(c1)CCCC2)Cc1cc2c(cc1C(O)OC)CCC2 (configuration not stated)
> 100 µM

# repeat for `CCCNc1[nH]c(C(=O)c2ccccc2)c(N)c1C(=S)Nc1ccccc1`
> 100 µM

# repeat for `C=CC(=O)N1C[C@H](COc2nc(Nc3cnn(C)c3)nc3[nH]cc(Cl)c23)[C@@H](OC)C1`
25.7 µM

* * *

# Tested on: T-47D breast
# ASSAY: NCI tumour cell line growth inhibition, 48 h
METRIC NAME: TGI

{"columns": ["COMPOUND", "TGI"],
 "data": [
  ["COC(=O)/C1=C/c2c([nH]c3ccccc23)/C(C(=O)OC)=C\\c2c1[nH]c1ccccc21", "> 50 µM"],
  ["O=c1cc(NCC(O)CN2CCOCC2)n(Cc2ccccc2)c(=O)n1Cc1ccccc1 (stereo unspecified)", "> 100 µM"],
  ["OCCCNCc1ccncc1", "> 100 µM"],
  ["NS(=O)(=O)c1nnc(NS(=O)(=O)c2ccc(F)cc2)s1", "> 100 µM"],
  ["c1ccc2c(CC3NCCN3)cccc2c1", "> 100 µM"]
]}

Moving on to another compound below.
Which TGI value is on record for `Nc1ccc(S(=O)(=O)Nc2cnc3ccccc3n2)cc1` ?
> 100 µM

* * *

# System: IGROV1 ovarian
# ASSAY: NCI tumour cell line growth inhibition, 48 h
This section presents molecules with their documented TGI values.

{"columns": ["MOLECULE", "READOUT VALUE"],
 "data": [
  ["CC(=O)OC1Oc2ccccc2-c2oc(=O)c(-c3ccc(F)cc3)cc21 (stereo not given)", "> 100 µM"]
]}

Which TGI value is on record for CC1=NN(C(=O)CC(=O)Nc2ccccc2)C(=O)C1N=Nc1ccc(C(=O)O)cc1 (stereo not given) ?
> 100 µM

# repeat for `Cc1ccc(S(=O)(=O)N(CCN2C(=O)c3ccccc3C2=O)c2cc3c4c(c2)Oc2cc(N(CCN5C(=O)c6ccccc6C5=O)S(=O)(=O)c5ccc(C)cc5)cc5c2C4(C)c2c(cc(N(CCN4C(=O)c6ccccc6C4=O)S(=O)(=O)c4ccc(C)cc4)cc2O5)O3)cc1`
> 100 µM

# repeat for `CCOC(=O)/C(=C\NCc1ccc2c(c1)OCO2)c1nc2ccccc2[nH]1`
> 100 µM

# repeat for `CC(=O)NNc1nc(C)c(C(=O)/C=C/c2cccc([N+](=O)[O-])c2)s1`
> 100 µM

# repeat for CCCCOC(=O)C(=O)C(CC(CC)C(=O)c1ccccc1)C(=O)C=C(C)C (stereo not given)
> 100 µM

* * *

# Tested on: A498 renal
# ASSAY: NCI tumour cell line growth inhibition, 48 h
METRIC NAME: TGI

The examples below pair each entry with its known result.
{"columns": ["COMPOUND", "TGI"],
 "data": [
  ["Cc1cc(Cc2cc(Cc3cc(C)cc(C(C)(C)C)c3O)c(C)cc2C)c(O)c(C(C)(C)C)c1", "30.6 µM"],
  ["CCCNc1[nH]c(C(=O)c2ccccc2)c(N)c1C(=S)Nc1ccccc1", "> 100 µM"]
]}

Moving on to another compound below.
Which TGI value is on record for `CCOP(=O)(/C=C/n1ccc(N)nc1=O)OCC` ?
> 100 µM

* * *

# Test system: HCT-15 colon
# ASSAY: NCI tumour cell line growth inhibition, 48 h
METRIC NAME: TGI (µM)
Dear colleague, please return just the value in µM, with no unit written.

{"columns": ["MOLECULE", "TGI / µM"],
 "data": [
  ["CC1OC(OC2C(O)CC(OC3C(O)CC(OC4CCC5(C)C(CCC6C5CCC5(C)C(C7=CC(=O)OC7)CCC65O)C4)OC3C)OC2C)CC(O)C1O (stereo not drawn)", 0.0867]
]}

Which TGI value is on record for `O=C(CCc1ccc(O)c(O)c1)NCCc1cc(O)cc(OCc2ccccc2)c1` ?
58.4

# repeat for `C=C1C(=O)O[C@H]2[C@H]1CC/C(COC(=O)/C=C\C(=O)NCc1ccc(Cn3c(=O)sn(CCCI)c3=O)cc1)=C\CC[C@@]1(C)O[C@@H]21`
1.12

# repeat for `COc1ccc(N2CCN(C(=O)c3ccc(C(F)(F)F)nc3Nc3cc(Cl)ccc3C)CC2)cc1`
21.2

* * *

# System: OVCAR-4 ovarian
# ASSAY: NCI tumour cell line growth inhibition, 48 h
METRIC NAME: TGI

The examples below pair each entry with its known result.
{"columns": ["MOLECULE", "TGI"],
 "data": [
  ["CC(=O)N(O)CCCCCNC(=O)CCC(=O)N(O)CCCCCNC(=O)CCC(=O)N(O)CCCCCN", "> 100 µM"],
  ["NC(=O)NN/C=C(/C=Nc1ccccc1)[N+](=O)[O-]", "> 100 µM"],
  ["Cc1cc(Cc2cc(Cc3cc(C)cc(C(C)(C)C)c3O)c(C)cc2C)c(O)c(C(C)(C)C)c1", "25.4 µM"],
  ["COc1ccc(C(O)c2cc(OC)c(OC)c(OC)c2)cc1 (stereo not drawn)", "> 100 µM"],
  ["CC1(C)C2CCC13C(=O)C1OC3(C2)C2C(=O)N(c3ccccc3)C(=O)C12 (stereo not drawn)", "> 100 µM"]
]}

Which TGI value is on record for `COc1cccc(N=Cc2cc(OC)c(OC)c(OC)c2)c1` ?
> 100 µM

# repeat for CCOP1(=O)C=CC(Cl)=C(C)C1 (stereo not drawn)
30.7 µM

# repeat for `CN(/N=C(\C(=O)O)c1ccccc1)C1=NCCN1`
> 100 µM

# repeat for `CO/C(=N\N=Cc1ccccc1)c1ccncc1`
> 100 µM

# repeat for `CN1CCN(C(=S)N(C(=O)c2ccco2)C2CCCCC2)CC1`
> 100 µM

# repeat for `O=CC1=C(C(=O)OC(c2ccccc2)c2ccccc2)N2C(=O)[C@@H](NC(=O)Cc3cccs3)[C@H]2SC1`
> 100 µM
